- protocol details: Phase 1 single dose study, plasma pharmacokinetics in healthy adult males
- Type: in vivo, human
- details: male, human, plasma, po, 50 mg, 50 mg single oral, fed, suspension (C6); read-out: Tmax (median)
readout name: Tmax (h)
Number in h, nothing else.

[2H]c1c([2H])c([2H])c2c(C(=O)c3cc(Br)c(O)c(Br)c3)c(C(C)O)oc2c1[2H] (racemic) [Compound 1] yielded Tmax of 8

----------
- protocol details: Phase 1 single dose study, plasma pharmacokinetics in healthy adult males
- Format: in vivo, human
- details: male, human, plasma, po, 50 mg, 50 mg single oral, fasted; read-out: Geometric Least Squares Mean Cmax, Fasted
readout name: Cmax (ng/mL)
Number in ng/mL, nothing else.

[2H]c1c([2H])c([2H])c2c(C(=O)c3cc(Br)c(O)c(Br)c3)c(C(C)O)oc2c1[2H] (racemic) yielded Cmax of 3250

----------
- protocol details: Phase 1 single dose study, plasma pharmacokinetics in healthy adult males
- Format: in vivo, human
- details: male, human, plasma, po, 50 mg, 50 mg single oral, fasted, IR capsule (C7); read-out: Vz/F
readout name: Vd/F (L)
Number in L, nothing else.

[2H]c1c([2H])c([2H])c2c(C(=O)c3cc(Br)c(O)c(Br)c3)c(C(C)O)oc2c1[2H] (racemic) yielded Vd/F of 14.9

----------
- protocol details: Phase 1 multiple ascending dose study, plasma pharmacokinetics in healthy adult males
- Type: in vivo
- details: male, human, oral, 25 mg, 25 mg once daily, fasted, Day 1, read-out: AUC0-24
readout name: AUC(0-t)
Entry format: amount then unit.

[2H]c1c([2H])c([2H])c2c(C(=O)c3cc(Br)c(O)c(Br)c3)c(C(C)O)oc2c1[2H] (racemic) yielded AUC(0-t) of 21200 ng·h/mL

----------
- protocol details: Phase 1 single dose study, plasma pharmacokinetics in healthy adult males
- Type: in vivo, human
- details: male, human, plasma, po, 50 mg, 50 mg single oral, fed; read-out: Geometric Least Squares Mean AUClast, Fed
readout name: AUC(0-t)

[2H]c1c([2H])c([2H])c2c(C(=O)c3cc(Br)c(O)c(Br)c3)c(C(C)O)oc2c1[2H] (racemic) yielded AUC(0-t) of 49600 ng·h/mL

----------
- protocol details: Phase 1 multiple ascending dose study, plasma pharmacokinetics in healthy adult males
- Format: in vivo
- details: male, human, oral, 50 mg, 50 mg once daily, fasted, Day 10, read-out: Tmax (median)
readout name: Tmax (h)
Number in h, nothing else.

[2H]c1c([2H])c([2H])c2c(C(=O)c3cc(Br)c(O)c(Br)c3)c(C(C)O)oc2c1[2H] (racemic) yielded Tmax of 2.5

----------
- protocol details: Phase 1 single dose study, plasma pharmacokinetics in healthy adult males
- Format: in vivo, human
- details: male, human, plasma, po, 50 mg, 50 mg single oral, fed, suspension (C6); read-out: AUCinf (total)
readout name: AUC(0-inf) (ng·h/mL)
Number in ng·h/mL, nothing else.

[2H]c1c([2H])c([2H])c2c(C(=O)c3cc(Br)c(O)c(Br)c3)c(C(C)O)oc2c1[2H] (racemic) [Compound 1] yielded AUC(0-inf) of 51200

----------
- protocol details: Phase 1 multiple ascending dose study, plasma pharmacokinetics in healthy adult males
- Format: in vivo
- details: male, human, oral, 50 mg, 50 mg once daily, fasted, Day 1
readout name: Cmax
Entry format: amount then unit.

[2H]c1c([2H])c([2H])c2c(C(=O)c3cc(Br)c(O)c(Br)c3)c(C(C)O)oc2c1[2H] (racemic) yielded Cmax of 3550 ng/mL
